System: SNB-75 CNS
Test: NCI tumour cell line growth inhibition, 48 h
measurement.name: TGI (µM)
Give bare numbers, in µM.

Here's what some known entries look like.
In [3]: df
Out[3]:
                                   compound  measurement_name  recorded_number
0     O=C1/C(=C/c2ccc(O)cc2)CSc2ccc(Cl)cc21               TGI             54.8
1  CCN(CC)CC(=O)O[C@]1(CC)C(=O)OCc2c1cc1n(c2=O)Cc2cc3ccccc3nc2-1               TGI            0.677

Give me TGI for each of these compounds, listed below.
1. CCCCCN(CCCCC)CC(O)c1ccc(Cl)c2ccccc12 (stereo not given)
2. Cc1nc2ccccc2n1C(=O)c1c(F)c(F)c(F)c(F)c1F
3. COc1ccc(-n2cc(-c3cc(OC)c(OC)c(OC)c3)[nH]c2=O)cc1Cl
4. CCOC(=O)c1c(C)nc2c(c1N)/C(=C/c1ccc(OC)cc1)C(=O)N2Cc1ccc(F)cc1

Output:
[35.8, 90.1, 28.8, 4.83]

Kindly give each listed record's TGI.
1. CC(=O)N1C/C(=C\c2ccc(N(C)C)cc2)C(=O)/C(=C/c2ccc(N(C)C)cc2)C1
2. COc1cc2c3c(n(C)c(=O)c2cc1OC)-c1cc2c(cc1/C3=C\CNCCCN)OCO2

Output:
49.4
9.47

---

System: KM12 colon
Assay: NCI tumour cell line growth inhibition, 48 h; in the data active means GI50 below about 0.43 µM; inactive means the rest
Can you answer with just one of these options? Y for active, N for inactive

// known answers, use as guide
                                   compound  label
0  COC(=O)c1c(C)[nH]c(/C=C2\N=C(c3ccc[nH]3)C=C2OC)c1C      Y
1  CCC(=O)c1c(C(F)(F)F)n([O-])c2ccc(C)cc2[n+]1=O      N
2  O=C(/C(=C/c1cccc([N+](=O)[O-])c1)c1ccccc1)c1ccccc1      N
3   COc1ccc(OC)c(C(=O)c2oc3ccc(Br)cc3c2N)c1      Y
4  O=S1(=O)N(CCNc2nccc(-c3c(-c4cccc(O)c4)nc4sccn34)n2)CCN1Cc1ccccc1      N
5  COc1cc(NS(=O)(=O)c2ccc(-c3cnc(C4CC4)o3)cc2)ccc1F      Y
6  Cc1ccc(C(=O)Nc2ccc(CN3CCN(C)CC3)c(C(F)(F)F)c2)cc1C#Cc1cnc(N)c2ccccc12      Y
7  Cc1ccc(NC(=O)NCCCOc2ccc(N3C(N)=NC(N)=NC3(C)C)cc2Cl)cc1S(=O)(=O)F      N

Input: // param item: "C/C(=N\Nc1ccc(Cl)cn1)c1ccccn1" ; yields the recorded call
Output: Y

Input: For this compound, state the assay outcome: Cc1ccc2[nH]c(C(=O)NN3C(=O)C(C)SC34CCCC(C)C4)c(-c3ccccc3)c2c1 (stereo not given)
Output: N

---

System: SK-MEL-2 melanoma
Assay: NCI tumour cell line growth inhibition, 48 h; in the data active = GI50 below about 0.43 µM; inactive = the rest
Thanks in advance; please answer with one of these: TRUE for active, FALSE for inactive

A selection of reference data follows.
In [3]: df
Out[3]:
                                   compound  label
0  Fc1ccc(-c2nn3ncccc3c2-c2ccnc(Nc3ccc4c(c3)OCCO4)n2)cc1  FALSE
1     O=C1/C(=C/c2ccc(O)cc2)CSc2ccc(Cl)cc21  FALSE
2  N.N.O=C([O-])P(=O)([O-])[O-].[Na+].[Pt+4]  FALSE
3   COc1ccc(OC)c(C(=O)c2oc3ccc(Br)cc3c2N)c1   TRUE
4  COc1ccccc1Cn1cc2c(c1-c1ccccc1)CCc1cnoc1-2  FALSE

Okay, now this compound:
Input: Just curious, what result did "O=C(/C=C\n1cnc(-c2cc(C(F)(F)F)cc(C(F)(F)F)c2)n1)NNc1cnccn1" get here?
Output: TRUE

---

Tested on: SNB-75 CNS
Experiment: NCI tumour cell line growth inhibition, 48 h
Please go through the items and note down their TGI.

Below: 5 compounds and their reported TGI.
compound	system	TGI
C/C(=N\Nc1ccc(Cl)cn1)c1ccccn1	SNB-75 CNS	> 76.2 µM
CC1ON2CCCC2[C@H]1C(=O)N1C2CC3CCC2(CS1(=O)=O)C3(C)C (stereo partly specified)	SNB-75 CNS	> 100 µM
Cc1cc(C)n(C2OC(CO)C(O)C(O)C2O)c(=S)c1C#N (stereo unspecified)	SNB-75 CNS	> 100 µM
Cn1c(=O)c2[nH]c(CCCCC(=O)O)nc2n(C)c1=O	SNB-75 CNS	> 100 µM
CC(=NNC(=S)Nc1ccc(C)cc1)c1cccc(C(C)=NNC(=S)Nc2ccc(C)cc2)n1	SNB-75 CNS	85 µM

Give TGI for each of the items listed below.
1. NCCCCC(N)C(=O)NCCNc1ccc(NCCNC(=O)C(N)CCCCN)c2c1C(=O)c1ccccc1C2=O (stereo unspecified)
2. N#C/C(N)=C(\C#N)N=CN
3. COc1cc(/C=C2\N=C(c3ccccc3)N(c3nc4c(OC)ccc(OC)c4s3)C2=O)ccc1O
4. C=CCc1cc(-c2cc(CC=C)c(O)c(CNCCCl)c2)cc(CNCCCl)c1O
5. N#Cc1cccc(NC(=O)c2cc(-c3ccc(F)cc3F)ccc2O)c1
6. CCc1oc2ccccc2c1C(=O)c1cc(I)c(O)c(I)c1

Output:
> 100 µM
> 100 µM
93.2 µM
> 100 µM
8.05 µM
6.43 µM

I have 8 compounds here; please give me TGI for each one.
1. O=C1NCCCNCCCNCCCNC(=O)c2cccc1n2
2. CC(=O)OCCOCn1cnc2c(Cl)nc(Cl)nc21
3. COc1ccc(N2C(=O)c3cc(C)cnc3S2(=O)=O)cc1
4. COc1ccc(CNc2nc3cc(C(F)(F)F)ccc3nc2C)cc1OC
5. COc1ccc(C2SCC(=O)N2NC(=O)Nc2c(C)nc3ccccn23)cc1 (stereo unspecified)
6. C=C(CC[C@@H](C)[C@H]1CC[C@@]2(C)C3=C(CC[C@]12C)[C@@]1(C)CC[C@H](O)[C@@H](C)C1CC3)C(C)C (stereo partly specified)
7. Cc1ccc(-c2cc(=O)c3cc(C)c(C)c(C(=O)O)c3o2)cc1C
8. CCC(=O)c1c(C(F)(F)F)n([O-])c2ccc(C)cc2[n+]1=O

Output:
["> 100 µM", "51.7 µM", "> 100 µM", "61.4 µM", "19.9 µM", "2.49 µM", "> 100 µM", "> 50 µM"]

Would you be so kind as to report TGI for each listed record?
1. CC1=N/C(=C\c2cccc([N+](=O)[O-])c2)C(=O)O1
2. COc1cc(/C=C2\CCCC3=C2NC(C)=NC3c2cc(OC)c(OC)c(OC)c2)cc(OC)c1OC (stereo unspecified)
3. CCNc1cc2c(cc1O)CC[C@@H]1[C@@H]2CC[C@]2(C)[C@@H](O)CC[C@@H]12
4. O=C(Nc1ccc(Cl)cc1Cl)C(=O)C(C(=O)c1ccncc1)C1OC(=O)c2ccccc21 (stereo unspecified)
5. COc1cc2c3c(n(CCNCCCNCCn4c5c(c6cc(OC)c(OC)cc6c4=O)C(=O)c4ccccc4-5)c(=O)c2cc1OC)-c1ccccc1C3=O
6. CCOc1ccc2c(c1)[n+]([O-])c(-c1nc3ccccc3s1)c(N)[n+]2[O-]

Output:
1: 91 µM; 2: > 100 µM; 3: 11.4 µM; 4: > 100 µM; 5: 6.81 µM; 6: > 100 µM

Provide the reported TGI of each entry below, same order.
1. Cc1nc(-c2ccccc2)c(-c2ccccc2)s1
2. O=C(Cc1ccccc1)N/N=C/c1ccccc1O
3. CSc1nc2cc(S(=O)(=O)N3CCCCC3)ccc2s1
4. c1ccc2c(c1)nc1n2CNC1
5. c1cc2c(ncc3cscc32)s1

Output:
["> 100 µM", "59.8 µM", "> 100 µM", "> 100 µM", "> 100 µM"]

---

System: HL-60(TB) leukemia
Test: NCI tumour cell line growth inhibition, 48 h
measurement.name: TGI

molecule	TGI
CCCCCCC(=O)C/C(=N/NC(N)=S)C(=O)NC1C2CC3CC(C2)CC1C3 (centres undefined)	> 100 µM
COC(=O)CCc1cc(O)c2c(c1)C(C(=O)OC)C(c1ccc(O)c(O)c1)O2 (centres undefined)	> 21.8 µM
COC/C=C\[C@]1(O)CCCC[C@@H]1CC(OC)OC	81.8 µM
COc1cc(/C=C2\N=C(c3ccccc3)N(c3nc4c(OC)ccc(OC)c4s3)C2=O)ccc1O	> 100 µM
COc1ccccc1N1CCN(CCCN2/C(=C(\O)c3ccccc3)C(=O)c3c(C)cc(C)nc3S2(=O)=O)CC1	> 100 µM
C=C[C@H]1C[C@@H]2C[C@@H]3[C@H]4C/C=C\C(=O)NCCCC5NC(=O)C(=C(O)/C=C/[C@@H]4CC(=O)[C@H]3[C@@H]2[C@H]1C)C5=O (some centres undefined)	3.42 µM

Each of the following entries comes with a recorded value; kindly state TGI for each.
1. CC(C)(C)c1ccc(-c2nc3ccc(Cl)cc3c(=O)o2)cc1
2. O=C1O/C(=C(/Br)c2ccc(Cl)c(Cl)c2)c2ccccc21
3. CN(C)C(c1ccccc1)C(O)c1ccccc1 (centres undefined)

Output:
["42.4 µM", "> 10 µM", "> 100 µM"]

Values from PubChem BioAssay (NCI)
